MEASURED_ON: GII.4 Houston 2002 (ABY27560.1) VLPs (UniProt P54635 1-539)
RUN_DESCRIPTION: ELISA binding
ENDPOINT_LABEL: EC50 (µg/mL)
Write down the numeric answer in µg/mL and omit the unit.

BINDER	VALUE_OBSERVED
NORO-278 (antibody, V domains shown) VH: QVQLVESGGGVVQPGRSLRLSCAASGFTFSSYGMHWVRQAPGKGLEWVAVISYDGSNKYYADSVKGRFTISRDNSKNTLYLQMNSLRAEDTAVYYCAKVTIIAAADLLDYWGQGTLVTVSS VL: QSVLTQPPSVSGAPGQRVTISCTGSSSNIGAGYDVHWYQQLPGTAPKLLIYGNSNRPSGVPDRFSGSKSGTSASLAITGLQAEDEADYYCQSYDSSLSGPVVFGGGTKLTVL	0.5

Next:
Please report the recorded EC50 for NORO-310A (antibody, V domains shown) VH: EVQLVESGGGLVRPGESLRLSCVASGFSVSDNYMSWVRQAPGKGLQWVSVIYSGGTTFYTDSVKGRFTISRDKSKNTLFLQMNSLRAEDTAVYFCTRDPSQYYDSRGHYYQTFTPSFDSWGQGTLVTVSS VL: DIQMTQSPSVMSASVGDRVTITCRASQDISDYLAWFQQKPGKVPKRLIYAASSLQNGVPSRFSGSGSGTEFTLTISSLQPEDFATYYCLQHDTYPLTFGGGTKVEIK . 0.6
